# Tested on: activated T cells
# assay.info: Fixed-ratio combination cytotoxicity assay, ruxolitinib + 15A7H (Chou-Talalay, Calcusyn)
# Assay type: cell-based, human
# assay.setup: Homo sapiens, T-cell, donor N102; RUXO + 15A7H, ratio 0.37:1; read-out: EC50RUXO Combination Treatment
assay.readout: pEC50
Scale note: pEC50 = -log10(concentration in M).

Input line: Would you mind telling me what pEC50 value was observed for N#CC[C@H](C1CCCC1)n1cc(-c2ncnc3[nH]ccc23)cn1 [RUXO] ?
Output line: 6.78

Reference source for all entries: patent US12290565B2
